# Lookup of reported IC50 keyed by entry
# study-system: G12D-mutant human KRAS (amino acid residues 1-188) (Homo sapiens, UniProt P01116, G12D)
# Construct: G12D or G12C-mutant human KRAS (amino acid residues 1-188) with FLAG tag; made in house; host or cells: E. coli
# Sequence (P01116 1-188 isoform P01116-2 G12D): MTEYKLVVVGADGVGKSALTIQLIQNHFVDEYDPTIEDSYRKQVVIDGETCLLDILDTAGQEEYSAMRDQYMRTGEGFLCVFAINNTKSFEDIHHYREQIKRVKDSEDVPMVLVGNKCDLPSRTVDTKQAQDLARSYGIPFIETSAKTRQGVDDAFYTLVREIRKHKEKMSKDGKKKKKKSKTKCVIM
# assay-notes: KRAS Binding Disruption Assay (AlphaScreen; biotinylated KRpep-2d analogue or RAF1-RBD), G12D
# particulars: KRAS G12D; geometric mean; read-out: KRAS GMean IC50 (uM) MUTATION: G12D

Answered examples (6):
>  <molecule>
Fc1c(-c2csc3ccccc23)ccc2c(N3C[C@H]4CC[C@@H](C3)N4)nc(OCC34CCCN3CCC4)nc12

>  <IC50>
0.0001 to 10 µM

$$$$
>  <molecule>
CN(C)C(=O)CCc1nc(N2[C@@H]3CC[C@H]2CNC3)c2ccc(-c3cc(O)cc4ccccc34)cc2n1

>  <IC50>
10 to 100 µM

$$$$
>  <molecule>
CN1CCC[C@H]1COc1nc(N2C[C@H]3CC[C@@H](C2)N3)c2ccc(-c3cnn4ccccc34)cc2n1

>  <IC50>
100 to 1000 µM

$$$$
>  <molecule>
O=C(O)COc1nc(N2C[C@H]3CC[C@@H](C2)N3)c2ccc(-c3cc(O)cc4ccccc34)c(F)c2n1

>  <IC50>
0.0001 to 10 µM

$$$$
>  <molecule>
Oc1cc(-c2ccc3c(N4C[C@H]5CC[C@@H](C4)N5)nc(OCCN4CCC4)nc3c2F)c2ccccc2c1

>  <IC50>
0.0001 to 10 µM

$$$$
>  <molecule>
Oc1cc(-c2ccc3c(N4C[C@H]5CC[C@@H](C4)N5)nc(CNC4CC(O)C4)nc3c2)c2ccccc2c1 (stereo partly shown)

>  <IC50>
0.0001 to 10 µM

$$$$

Query molecule follows.
q: Which value of IC50 has been reported for `Nc1ccc(Cl)c(-c2c(Cl)cc3c(N4C[C@H]5CC[C@@H](C4)N5)nc(OCC45CCCN4CCC5)nc3c2F)c1` in the records?
a: 0.0001 to 10 µM
